Can you tell me folding stability dG unfold for the items I'm about to list?
Assay Notes: folding stability dG unfold from chymotrypsin proteolysis; higher = more stable
Give bare numbers, in kcal/mol.

> print(dat)
                             query.sequence  result.number
1  SAGGSAGALLVRFNDPELVRELIEALPFDALVERDPDDPNVLLVTLFTDGPLEEAVRAVREALGLESAGGSA [r15_118_TrMRF]           3.25

Please supply folding stability dG unfold for each of the following items, keeping them in order.
1. SAGGSAGGSASSVPARLPDATVLEVTTDPATGLQTALLRFPDGSEVVVTHYPDGSVEVRPLSAGGSAGGSAG [r3_348_JUSTAS]
2. SAGGSFPIADVKEVKVEAYPETNTAKVPFTFPNGVTAVADAYLDPVTGRPVLVVRTPDGRLVVLPLSAGGSA [r2_490_TrMRF]
3. SAPIVIPAKAGSPENVLKAIKEAKELASKGKKVYLPILTKDGPIFFEVDPKTKTIKIYNPKTGEKKDLSSAG [r14_423_TrMRF]
4. SAGGSAGGSAGGMSITFTAPDGSKITATIDPDGNVLVEVHLGDKPYYVKGPVETLLKNAPSAGGSAGGSAGG [r7_178_TrMRF]
5. SAGGSAGGSPESVTFPVGDYLVTVTRNPEDGSLTVTVYDPKTGKPIVLPPEVLAENPDLAENLSAGGSAGGS [r12_817_TrMRF]

Key:
[2.67, 1.15, 1.04, 0.904, 2.35]

###

Assay Notes: folding stability dG unfold from trypsin proteolysis; higher = more stable
Measured Parameter: folding stability dG unfold (kcal/mol)
Answers are plain numbers, in kcal/mol.

> print(dat)
                             query.sequence           measured.parameter  result.number
1  SAGGSAGGVKEALEELLKKLKPGEKKTITLEIEVDGKLVKIEIEVLPDGEIKITKIEEIPKEDLSAGGSAGG [r6_87_TrROS_Hall]  folding stability dG unfold           2.97

Please supply folding stability dG unfold for each of the following items, keeping them in order.
1. EEIIEKLKEEGYEIVSVSIKEVNGKKKIFIAVRRKDKPEYLLVEIDLENKEVKIKKVKKFPKGESIEDILSS [r1_383_TrROS_Hall]
2. SSSTVTVTVTFPDGTVVTVDFTGSLAEVEAAVREWVRQYAAEQGLDPREVRVTITFADDGTTRERTLPLRSA [r9_1193_JUSTAS]
3. SAGGKKFKIKEITITYNPDADTVTMTVKLDDGTTVELTFNKETKKLTVKVINKDTGEEKEFEFTLPDSAGGS [r8_363_TrROS_Hall]
4. SAGGSAGGSAGKKLKPFKVVEVKEPVKEGDVIEVENEATGELYRFTVVNGEIKIEKVKLDSAGGSAGGSAGG [r11_94_TrROS_Hall]

Key:
1: 2.95; 2: 0.921; 3: 3.1; 4: 0.225

Please supply folding stability dG unfold for each of the following items, keeping them in order.
1. SEPVPVKIEISTSVDSNGNPSVTITVYNEEKVYTNPLNGATILSVDPNKQYIVIENPALGTKLTLSYTLISA [r9_1186_JUSTAS]
2. SAGGPWRFEIDDIQPPEDGKVQIRIKLYNDDGEPIQELSIPMKGVDDVKITIPIGNQPIKIPITVVPASAGG [r13_427_TrROS]

Key:
[2.07, -0.13]

What the record says about DDWVTLPVEIWIPVRNPDGKPLTPEQVKETANSIRNELARNHGIDVEVDVKVEPVGPNGYYRINATVTIRPS [r1_231_TrROS] : folding stability dG unfold is 2.23

###

Assay Notes: folding stability dG unfold from trypsin proteolysis; higher = more stable
Can you tell me folding stability dG unfold for the items I'm about to list?

> print(dat)
                             query.sequence           result
1  SAGGSSIKIEKIEKHENGVKIDISVPDLSNEEEINAVKKKLAEELGLKEEDVEVSLKSENIPLPPSIGSAGG [r13_430_JUSTAS]   0.474 kcal/mol
2  SAGGSAGGSAGKVELIETEDKLYLVVEVDGKKEVIEVSKEELEELLAALPPDAKVTILKPSAGGSAGGSAGG [r11_374_TrROS_Hall]    3.17 kcal/mol
3  SAGGSAGGSAGGMVLKTETRPGFEGGRAWTVTTTVYPDSVVVTTTPPDGVPTTTTIPPSSSAGGSAGGSAGG [r7_516_JUSTAS]  -0.221 kcal/mol

Please supply folding stability dG unfold for each of the following items, keeping them in order.
1. SAMYVRITVTFETPDGTRTVTIEIPPSEVEAGKPLSEEELKALAEEIAAKDPNATITEITIERFPESLESAG [r14_373_JUSTAS]
2. SAGNPDKPPKPRTYTLEIEIKLPPGDPDQAKELAHEIAHEIRDLGIKDTEVEYDPGNGRVRISITFTFWSAG [r5_512_TrROS]
3. SAGRKIPIMFTWPNGDPERMEEIAIEFANYLQPNGLPNVTIKIERKPVKDPENGKRRYVYMVTIEVQPPSAG [r5_49_TrROS]
4. SAGGMISEEDIEAAAKAIVEAAKNGDPERIEEEYARLEEALEEAEKEGDPERRGRLAKAVEAAKKLLGSAGG [r13_137_TrMRF]
5. SAGGMPEVKYLEITITVEVPTEEEALEKLKEELKKLFPNAEIVSVEVEVEEEDGKLTVTVKITVKLPSAGGS [r8_120_TrROS_Hall]
6. SAKVVIIKVKSPEELKAAIEELKKKLPEGAVIYIVNEDGSVYKITFDKKTGKVKIEKVKSLEELKKLLKSAG [r14_913_TrROS_Hall]
7. SLEIAKELGFPIKRFEPTEMDPDNGRQKWEAYIPMPNRTVRVDIDIRYEPDPNGKRQPKIQIDSIEFMPPSA [r9_613_TrROS]

Key:
4.29 kcal/mol
2.8 kcal/mol
1.92 kcal/mol
1.43 kcal/mol
3.66 kcal/mol
2.31 kcal/mol
0.392 kcal/mol

Please supply folding stability dG unfold for each of the following items, keeping them in order.
1. SAMTKTETFTFDDVEITVTTTEVTLPNGEKKDVYTLTKYTVDPSTGTTTPSSKTFSSKEEMEAALKASLSAG [r14_500_JUSTAS]
2. SAGGMVLVSTPSNRGASSEILKEAAEAISAGDPDKAAELAREYFQKNFPPDEPIKIEIFVDPPVEPESAGGS [r8_48_TrMRF]

Key:
3.6 kcal/mol
0.476 kcal/mol

###

Assay Notes: folding stability dG unfold (combined trypsin and chymotrypsin); higher = more stable
Can you tell me folding stability dG unfold for the items I'm about to list?
Give bare numbers, in kcal/mol.

Use these answered entries as a reference point.
> print(dat)
                             query.sequence           measured.parameter  result.number
1  SAGGSAGGSAGSITFTVPASEFTEEEILERLVEELGIPREKVDLVEIKETPDGKLKVTIKIPSAGGSAGGSA [r18_118_JUSTAS]  folding stability dG unfold           2.63
2  SAGGSAGGSAGGEIEVKEGEVVLVRLPDGTLLLYDKNTRRLYRFRFKDGKLEVEELELPESAGGSAGGSAGG [r7_527_TrROS_Hall]  folding stability dG unfold           4.03
3  SAGGSAGGSASIELPPDATVTLTTLDPATGTVTTTTVKVDSTGTTTLATTTTTVDPASAAAASAGGSAGGSA [r18_248_JUSTAS]  folding stability dG unfold           1.41
4  SAGGAMVPVNFTLKFTYTNPDGTPVFREKPVTLPFPESDPAAAEAAARARAEAEAAARGVEVDLEVSLSAGG [r13_853_JUSTAS]  folding stability dG unfold          0.193
5  SAGGTIKPGQPVRIRAEWYNGNKEWTHTHEFPLPENQTLDDVADEILEHLPPEHNKNFKVRIEIEPVSAGGS [r16_321_TrROS]  folding stability dG unfold          0.373
6  SAGGKKTFKVTLTLELKVERDEETGELKTETLTLTLTIEAESEEEAEKALKELLEKLELSPELKKALSAGGS [r16_40_TrROS_Hall]  folding stability dG unfold            3.4

Please supply folding stability dG unfold for each of the following items, keeping them in order.
1. SAGGSAGGSAGMLWIHDPESGTLVMLHPKPDGEVNVQVWQFDPDNGKPEIKTVPADNIEASAGGSAGGSAGG [r11_285_TrROS]
2. SAGGSAGGSAGKVELIETEDKLYLVVEVDGKKEVIEVSKEELEELLAALPPDAKVTILKPSAGGSAGGSAGG [r11_374_TrROS_Hall]

Key:
0.924
2.77

Please supply folding stability dG unfold for each of the following items, keeping them in order.
1. SAGGSAGGSAGGGMKVKIETTKLPNGIWRVKVYDENGNFIGEKEFTSEEELEEFKKKVASSAGGSAGGSAGG [r7_476_JUSTAS]
2. SAGGWTIREILEKNPNLREFAKEGWTIEIYYPNGKSGRVKIKEGSADDILDDINKNFPGPVEISITKSAGGS [r16_655_TrROS]
3. SAMVYEFPFETEEEAREKAREVLLEKLGASPEEEKVELDIEIEIREDPETGKKLATVTVPKVTVSPKKSSAG [r14_467_JUSTAS]
4. SAGGMTKEKALELAEEIAREFAKKHGIEKLELKVEDVVEKEDEVIVRLKIVYPDKVYELDLVVPKDYVSAGG [r13_611_TrMRF]
5. MKIEIEIEREEDRVIVRIKIERKDGKEIELELEVPSLEEALEAIEKILASLPPEEVKIVEIEIYNADGEKIS [r1_169_TrROS_Hall]
6. SPSTTVETTVTIPYTYRLPDGTVLEYNLTISVTASLTNGGISTGDLKSAIDTALAAANIPPGPPDLPLLLRS [r1_175_JUSTAS]

Key:
[4.49, 0.573, 0.318, 3.7, 2.21, 1.83]
